test description: Luminescence Cell-Based Dose Response HTS to Identify Inhibitors of 5'UTR Stem-Loop Driven Prion Protein mRNA Translation in H4 Neuroglioblastoma Cells. [Related pubchem assays: 1827 (Project Summary), 1813 (Primary HTS)]
Type: functional
Activity calls are given as the source filed them.
This listing pairs compounds with measured EC50.

Incoming: I am curious: what EC50 value has been reported for `Cc1[nH]n(-c2ccccc2)c(=O)c1/C=N/Nc1nncc(-c2ccccc2)n1` ?
Outgoing: 0.155 µM (active)

Incoming: What about `OCCN1CCN(C(=S)c2ccc(-c3ccccc3)cc2)CC1` ?
Outgoing: 12.1 µM (active)

Incoming: Check `Cc1ccc2c(c1)c(-c1ccccc1)nc1nnnn12` too.
Outgoing: > 120 µM (not active)

Incoming: Then COc1cccc(C2[C@H](C)C3(CCN2C)OCCO3)c1 (stereo not given in full) ?
Outgoing: > 120 µM (not active)

Incoming: Note, next up: CC(C)NCC(O)Cn1c2c(c3ccccc31)CCc1c-2cnn1-c1ccccc1 (stereo not given)
Outgoing: 10.7 µM (active)

###

test description: blockers of CRF-binding protein–CRF-R2 complex – cell-based, uHTS hits, 384-well, dose response (AID 651639)
Type: functional, Homo sapiens
experimental setup: read-out: IC50_Mean
Activity calls are given as the source filed them.
experimental endpoint: IC50

Some compounds with known IC50 results, for comparison:
INSERT INTO assay_data (compound, result) VALUES
  ('CC1=C(c2ccccc2)C(O)(c2ccccc2)C(C)C1=O (stereo not given)', '8.13 µM (active)'),
  ('COCCNc1nc2c(S(=O)(=O)c3cc(C)ccc3C)nnn2c2ccccc12', '10.6 µM (active)');

Incoming: Can you look up the measured IC50 of `O=C(Nc1nc2ccc(S(=O)(=O)N3CCCC3)cc2s1)c1ccccn1` for me?
Outgoing: > 20 µM (inactive)

Incoming: Also check `COc1ccc(/C=C/C(=O)NCc2cn(C)nc2C)cc1COc1ccc(Cl)cc1Br`
Outgoing: > 20 µM (inactive)

Incoming: Thanks! And `O=[N+]([O-])c1ccc(NS(=O)(=O)c2ccccc2)c(Cl)c1` ?
Outgoing: > 20 µM (inactive)

###

tested system: Endoribonuclease toxin MazF (Escherichia coli K-12)
Sequence (P0AE70 whole entry): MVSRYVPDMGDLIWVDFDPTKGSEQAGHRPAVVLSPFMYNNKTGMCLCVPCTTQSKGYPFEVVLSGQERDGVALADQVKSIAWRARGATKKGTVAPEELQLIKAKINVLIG
test description: substrate-only fluorescence increase artefacts – biochemical, single-stranded RNase substrate, counter-screen for MazEF activator project, dose response (AID 588502)
Assay type: functional
Active and inactive are the calls of the source.
Recorded EC50, one value per entry.

Below are worked cases with known answers.
INSERT INTO assay_data (compound_structure, result) VALUES
  ('CC(C)OC(=O)c1c2c(n3ccccc13)C(=O)c1ccccc1C2=O', '> 99 µM (inactive)'),
  ('O=C(CCl)NN=C(c1ccccc1)c1ccccc1', '> 99 µM (inactive)'),
  ('COc1cccc(Nc2nc(-c3ccccc3O)nc3ccccc23)c1', '40.7 µM (inactive)');

Here is another compound to look at.
Incoming: Look up EC50: `COC(=O)c1c(NC(=O)c2nc3ccccc3s2)sc2c1CC(C)(C)NC2(C)C`
Outgoing: > 99 µM (inactive)

###

tested system: Peroxisome proliferator-activated receptor gamma/Nuclear receptor coactivator 2 (Homo sapiens)
Sequence (P37231 whole entry): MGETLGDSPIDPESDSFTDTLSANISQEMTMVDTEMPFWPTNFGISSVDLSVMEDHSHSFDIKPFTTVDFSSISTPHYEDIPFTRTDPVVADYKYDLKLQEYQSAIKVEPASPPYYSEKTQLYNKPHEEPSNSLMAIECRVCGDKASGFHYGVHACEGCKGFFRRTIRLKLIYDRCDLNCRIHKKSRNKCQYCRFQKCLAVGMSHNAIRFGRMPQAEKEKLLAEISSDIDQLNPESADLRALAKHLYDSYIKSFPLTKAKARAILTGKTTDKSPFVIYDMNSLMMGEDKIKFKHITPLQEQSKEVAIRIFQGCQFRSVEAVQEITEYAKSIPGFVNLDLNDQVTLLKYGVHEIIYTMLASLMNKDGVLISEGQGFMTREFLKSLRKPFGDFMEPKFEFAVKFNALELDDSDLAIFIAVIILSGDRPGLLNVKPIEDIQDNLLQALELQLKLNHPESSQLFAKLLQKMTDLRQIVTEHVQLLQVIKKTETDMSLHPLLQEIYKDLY
Sequence (Q15596 whole entry, further chain): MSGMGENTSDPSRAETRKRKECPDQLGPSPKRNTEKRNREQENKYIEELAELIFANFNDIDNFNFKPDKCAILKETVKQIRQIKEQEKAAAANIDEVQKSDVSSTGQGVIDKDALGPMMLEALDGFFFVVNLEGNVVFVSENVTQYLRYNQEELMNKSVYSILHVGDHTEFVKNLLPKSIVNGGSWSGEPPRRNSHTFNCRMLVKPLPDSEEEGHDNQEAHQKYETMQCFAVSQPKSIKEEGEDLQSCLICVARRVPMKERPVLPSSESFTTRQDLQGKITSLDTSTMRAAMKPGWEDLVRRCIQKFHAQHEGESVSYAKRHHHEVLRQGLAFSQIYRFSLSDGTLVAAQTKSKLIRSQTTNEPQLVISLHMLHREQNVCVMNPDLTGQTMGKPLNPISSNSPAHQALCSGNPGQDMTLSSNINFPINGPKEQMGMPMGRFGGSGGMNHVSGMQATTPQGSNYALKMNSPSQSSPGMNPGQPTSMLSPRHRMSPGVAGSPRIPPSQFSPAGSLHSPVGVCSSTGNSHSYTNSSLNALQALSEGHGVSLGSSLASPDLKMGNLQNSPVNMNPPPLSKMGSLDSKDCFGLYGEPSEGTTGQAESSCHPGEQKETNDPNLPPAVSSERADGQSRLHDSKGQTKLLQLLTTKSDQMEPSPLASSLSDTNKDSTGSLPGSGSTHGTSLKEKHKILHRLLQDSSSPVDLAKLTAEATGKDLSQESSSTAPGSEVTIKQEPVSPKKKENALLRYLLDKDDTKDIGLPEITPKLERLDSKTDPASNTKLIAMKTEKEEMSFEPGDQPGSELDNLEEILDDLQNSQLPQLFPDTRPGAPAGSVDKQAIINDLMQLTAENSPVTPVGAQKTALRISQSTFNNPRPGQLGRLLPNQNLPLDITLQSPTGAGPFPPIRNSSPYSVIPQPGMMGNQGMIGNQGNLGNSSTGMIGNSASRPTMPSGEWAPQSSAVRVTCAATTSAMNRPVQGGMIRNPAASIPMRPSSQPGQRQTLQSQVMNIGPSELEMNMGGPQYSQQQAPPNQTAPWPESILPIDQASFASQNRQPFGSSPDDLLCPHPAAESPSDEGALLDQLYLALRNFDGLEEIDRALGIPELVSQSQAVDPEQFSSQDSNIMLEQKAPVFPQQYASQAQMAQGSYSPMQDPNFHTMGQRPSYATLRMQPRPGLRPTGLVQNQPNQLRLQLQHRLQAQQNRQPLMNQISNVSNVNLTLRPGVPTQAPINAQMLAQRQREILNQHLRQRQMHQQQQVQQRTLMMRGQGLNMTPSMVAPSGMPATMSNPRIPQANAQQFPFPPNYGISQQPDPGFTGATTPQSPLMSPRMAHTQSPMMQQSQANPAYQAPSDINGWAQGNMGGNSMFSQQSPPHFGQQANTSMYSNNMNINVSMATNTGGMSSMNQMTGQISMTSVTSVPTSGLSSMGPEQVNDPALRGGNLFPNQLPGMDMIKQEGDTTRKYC
test description: TR-FRET dose response biochemical High Throughput Screening assay for agonists of the steroid receptor coactivator 2 (SRC-2) recruitment by the peroxisome proliferator-activated receptor gamma (PPAR gamma): non-selective agonists. [Related pubchem assays: 1297, 1032 ]
Format: functional
Calls of active or inactive are those of the source.
experimental endpoint: EC50

Some compounds with recorded EC50:
INSERT INTO assay_data (compound_structure, result) VALUES
  ('O=C(O)Cc1sc(-c2ccccc2)nc1-c1cccs1', '26 µM (not active)'),
  ('CCOC(=O)CSc1c(-c2cccs2)[nH]c2ccccc12', '13.8 µM (not active)');

Incoming: Given the compound `Cn1c(=O)cc(SCC(=O)N2CCN(C(=O)c3ccco3)CC2)c2ccccc21` , what is its reported EC50?
Outgoing: > 79.4 µM (not active)

Incoming: Please do the same for `CCOC(=O)C1CCN(C(=O)CSc2cc(=O)n(CC)c3ccccc23)CC1` as well.
Outgoing: > 79.4 µM (not active)

Incoming: Follow-up item: `CC1=NOC(=O)/C1=C\c1ccc(-c2ccccc2Br)o1`
Outgoing: 5.02 µM (active)

Hey, just so you know, these numbers are from ChEMBL document CHEMBL1201862.
